Collected TGI values appear next to each entry.
- System: MDA-N
- experimentDescription: NCI tumour cell line growth inhibition, 48 h

Some entries whose results are on file:
{"columns": ["compound", "measured"],
 "data": [
  ["COn1cc(CO)c2ccccc21", "> 100 µM"],
  ["CC(=O)[CH-]C(C)=O.CC(=O)[CH-]C(C)=O.N=CC=N.[Sn+2]", "3.69 µM"],
  ["CC1(C)OC(CCO)CN1C(=O)OCc1ccccc1 (configuration not stated)", "> 100 µM"],
  ["COc1cc2c(cc1O)CC[n+]1cc3c(OC)c(OC)ccc3cc1-2", "> 100 µM"],
  ["CC(C)(C)c1ccc2c(c1)OCc1n[nH]c(n1)COc1cc(C(C)(C)C)ccc1OCCOCCO2", "12.3 µM"],
  ["CCOC(=O)C1=C(C)NC(=O)N([N+](=O)[O-])C1c1ccccc1C(F)(F)F (configuration not stated)", "79.7 µM"]
]}

Entry under test: O=C(NCCCNCCCCNCCCNC(=O)C(F)(F)F)C(F)(F)F . Its TGI was > 100 µM

Entry under test: Cc1ccc(-n2cc(-c3ccc(Cl)cc3)c3c2N=CN2NC(c4ccco4)=NC32)cc1 (configuration not stated) . Its TGI was > 100 µM

Entry under test: COc1ccc2c(-c3cc4ccccc4o3)cc(=O)oc2c1 . Its TGI was > 100 µM

Entry under test: Cc1cc(C)nc(NS(=O)(=O)c2ccc(Nc3c4ccccc4nc4c(C(=O)NCCO)cccc34)cc2)n1 . Its TGI was 69.6 µM

Entry under test: COc1cc(/C=C/C(=O)O)ccc1OS(=O)(=O)O . Its TGI was > 100 µM

Entry under test: CCCCCC(C(O)C#N)C(O)(C(F)(F)F)C(F)(F)F (configuration not stated) . Its TGI was > 10 µM

Entry under test: COc1cc(-c2c3c(cc4c2OCO4)[C@@H](Nc2ccc4c(c2)Cc2cc(N[C@@H]5c6cc7c(cc6C(c6cc(OC)c(O)c(OC)c6)[C@H]6C(=O)OC[C@H]56)OCO7)ccc2-4)[C@H]2COC(=O)[C@@H]2C3)cc(OC)c1O (some centres not stated) . Its TGI was 34.3 µM

Entry under test: COc1cc(OC)c(C2c3cc4c(cc3OC(N3CCOCC3)C2C)OCO4)c(OC)c1 (configuration not stated) . Its TGI was > 100 µM
